Attribute: viability, T/C
# System: Hs578T multi-cell spheroids, viability
# Method: Anticancer human tumor Hs578T cell line growth inhibition [IpAb];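 further: drug exposure lasted 7 days before readout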
# Condition parameters: second compound 0.1 µM; first compound 1 µM; active compounds read low
Report only the number, with the unit % understood.

Consider the following illustrative entries.
C=CCn1c(=O)c2cnc(Nc3ccc(N4CCN(C)CC4)cc3)nc2n1-c1cccc(C(C)(C)O)n1 + CC(C)NCC(C(=O)N1CCN(c2ncnc3c2C(C)CC3O)CC1)c1ccc(Cl)cc1 : 26.9
Cn1ncc(Cl)c1-c1cc(C(=O)NC(CN)Cc2cccc(F)c2)sc1Cl (stereo unspecified) + CC(C)NCC(C(=O)N1CCN(c2ncnc3c2C(C)CC3O)CC1)c1ccc(Cl)cc1 : 56.5
Cc1nc(NC(=O)N2CCCC2C(N)=O)sc1-c1ccnc(C(C)(C)C(F)(F)F)c1 (stereo unspecified) + CC(C)NCC(C(=O)N1CCN(c2ncnc3c2C(C)CC3O)CC1)c1ccc(Cl)cc1 : 57.4
CCCS(=O)(=O)Nc1ccc(F)c(C(=O)c2c[nH]c3ncc(-c4ccc(Cl)cc4)cc23)c1F + CC(C)NCC(C(=O)N1CCN(c2ncnc3c2C(C)CC3O)CC1)c1ccc(Cl)cc1 : 89.9
Cn1nccc1Nc1nccc(-c2ccn(C(CO)c3ccc(Cl)c(F)c3)c(=O)c2)n1 (stereo unspecified) + CC(C)NCC(C(=O)N1CCN(c2ncnc3c2C(C)CC3O)CC1)c1ccc(Cl)cc1 : 76.8

Which viability, T/C value belongs to Cc1nc(NC(=O)N2CCCC2C(N)=O)sc1-c1ccnc(C(C)(C)C(F)(F)F)c1 (stereo unspecified) + CCN1CCN(Cc2ccc(Nc3ncc(F)c(-c4cc(F)c5nc(C)n(C(C)C)c5c4)n3)nc2)CC1 ? 43.9
